Target: Replicase polyprotein 1ab (Severe acute respiratory syndrome coronavirus 2) (UniProt P0DTD1)
Assay: Inhibition of SARS Cov-2 papain-like protease extracted form Escherichia coli Rosetta (DE3) using fluorogenic substrate RLRGG-AMC assessed as inhibition rate by measuring fluorescent signal at 4 uM incubated for 30 mins relative to control
value-kind: inhibition

Query string: Identify the reported inhibition for the following entry. Cc1ccc(N)cc1C(=O)N[C@H](C)c1cccc(-c2ccc(C=O)s2)c1
Result string: 30%
